test system: Mus musculus; assay: Antihyperalgesic effect in Swiss mouse assessed as inhibition of CFA-induced paw withdrawal threshold at 300 mg/kg, po after 2 hrs; format: functional
Hi there, I'd appreciate the recorded inhibition in vivo at 300 mg/kg for every entry that follows.
Give bare numbers, in %.

Worked examples, 5 compounds total:
Task: Which inhibition in vivo at 300 mg/kg is listed for NS(=O)(=O)c1ccc(N2N=C(c3ccccc3)CC2(O)C(F)(F)F)cc1 (stereo unspecified) ?
Output: 52

Task: Given the compound Cc1ccc(C2=NN(c3ccc(S(N)(=O)=O)cc3)C(O)(C(F)(F)F)C2)cc1 (stereo unspecified) , what is its reported inhibition in vivo at 300 mg/kg?
Output: 64

Task: What measured inhibition in vivo at 300 mg/kg goes with NS(=O)(=O)c1ccc(N2N=C(c3ccc(Cl)cc3)CC2(O)C(F)(F)F)cc1 (stereo unspecified) ?
Output: 57

Task: So what does the record say about inhibition in vivo at 300 mg/kg for NS(=O)(=O)c1ccc(N2N=C(c3ccc(F)cc3)CC2(O)C(F)(F)F)cc1 (stereo unspecified) ?
Output: 62

Task: Name the recorded inhibition in vivo at 300 mg/kg for NS(=O)(=O)c1ccc(N2N=C(c3ccc(Br)cc3)CC2(O)C(F)(F)F)cc1 (stereo unspecified) .
Output: 57

Okay, next one:
Task: Endpoint output: inhibition in vivo at 300 mg/kg of Cc1ccc(-c2cc(C(F)(F)F)nn2-c2ccc(S(N)(=O)=O)cc2)cc1 . Value?
Output: 77

* * *

tested on: Mus musculus; experiment: Locomotor activity in Swiss mouse assessed as motor impairment at 300 mg/kg, po by rotarod test; format: toxicity, organism-based; conditions: in vivo
Measurement Type: Activity

Observe how each entry below is paired with its result.
Task: Requested field: Activity. Item: NS(=O)(=O)c1ccc(N2N=C(c3ccc(Cl)cc3)CC2(O)C(F)(F)F)cc1 (configuration not stated)
Output: Non-toxic

Task: Can you look up the measured Activity of NS(=O)(=O)c1ccc(N2N=C(c3ccc(F)cc3)CC2(O)C(F)(F)F)cc1 (configuration not stated) for me?
Output: Non-toxic

Task: Quick one: Activity of NS(=O)(=O)c1ccc(N2N=C(c3ccccc3)CC2(O)C(F)(F)F)cc1 (configuration not stated) ?
Output: Non-toxic

Task: For NS(=O)(=O)c1ccc(N2N=C(c3ccco3)CC2(O)C(F)(F)F)cc1 (configuration not stated) , what is its reported Activity?
Output: Non-toxic

Task: I would be grateful if you could share the reported Activity for NS(=O)(=O)c1ccc(N2N=C(c3ccc(Br)cc3)CC2(O)C(F)(F)F)cc1 (configuration not stated) .
Output: Non-toxic

Task: Tell me the measured Activity of COc1ccc(C2=NN(c3ccc(S(N)(=O)=O)cc3)C(O)(C(F)(F)F)C2)cc1 (configuration not stated) , please.
Output: Non-toxic

Then this compound:
Task: Any idea what Activity was measured for Cc1ccc(C2=NN(c3ccc(S(N)(=O)=O)cc3)C(O)(C(F)(F)F)C2)cc1 (configuration not stated) ?
Output: Non-toxic

* * *

system: Mus musculus; assay: Locomotor activity in Swiss mouse assessed as motor impairment at 300 mg/kg, po by open-field test; type: toxicity, organism-based; settings: in vivo
Measurement Type: Activity

Below: 6 molecules and their reported Activity.
Task: For the molecule NS(=O)(=O)c1ccc(N2N=C(c3ccccc3)CC2(O)C(F)(F)F)cc1 (configuration not stated) , what Activity is on record?
Output: Non-toxic

Task: Give the measured Activity of Cc1ccc(C2=NN(c3ccc(S(N)(=O)=O)cc3)C(O)(C(F)(F)F)C2)cc1 (configuration not stated) .
Output: Non-toxic

Task: I would be grateful if you could share the reported Activity for NS(=O)(=O)c1ccc(N2N=C(c3ccc(F)cc3)CC2(O)C(F)(F)F)cc1 (configuration not stated) .
Output: Non-toxic

Task: What value of Activity has been recorded for this entry: NS(=O)(=O)c1ccc(N2N=C(c3ccco3)CC2(O)C(F)(F)F)cc1 (configuration not stated)
Output: Non-toxic

Task: Look up Activity: NS(=O)(=O)c1ccc(N2N=C(c3ccc(Cl)cc3)CC2(O)C(F)(F)F)cc1 (configuration not stated)
Output: Non-toxic

Task: Query (molecule): NS(=O)(=O)c1ccc(N2N=C(c3ccc(Br)cc3)CC2(O)C(F)(F)F)cc1 (configuration not stated) ; field requested: Activity
Output: Non-toxic

# input for lookup
Task: Would you kindly share the measured Activity for COc1ccc(C2=NN(c3ccc(S(N)(=O)=O)cc3)C(O)(C(F)(F)F)C2)cc1 (configuration not stated) ?
Output: Non-toxic
